This collection of values is drawn from patent US10183036B2.

test system: Hela cells; assay: NAD content in cultured Hela cells supplemented with NAD+ precursor (EnzyChrom NAD+/NADH assay kit); format: cell-based; conditions: Homo sapiens, 100 μM precursor, 24 h at 37° C., control = 100.0
observable: activity at 100 µM (%)
// units = %; emit number, no label

See these solved cases before continuing.
{"compound": "CC(=O)OC[C@H]1O[C@@H]([n+]2cccc(C(=O)O)c2)[C@H](OC(C)=O)[C@@H]1OC(C)=O [NAR TA]", "test.target": "Hela cells", "activity at 100 µM [%]": 173}
{"compound": "CC(=O)OC[C@H]1O[C@@H](N2C=CCC(C(N)=O)=C2)[C@H](OC(C)=O)[C@@H]1OC(C)=O [NRH TA]", "test.target": "Hela cells", "activity at 100 µM [%]": 146}
{"compound": "O=C(O)c1ccc[n+]([C@@H]2O[C@H](CO)[C@H](O)[C@H]2O)c1 [NAR, Nicotinic acid riboside]", "test.target": "Hela cells", "activity at 100 µM [%]": 295}
{"compound": "O=C(O)C1=CN([C@@H]2O[C@H](CO)[C@@H](O)[C@H]2O)C=CC1 [NARH]", "test.target": "Hela cells", "activity at 100 µM [%]": 147}
{"compound": "CC(=O)OC[C@H]1O[C@@H]([n+]2cccc(C(N)=O)c2)[C@H](OC(C)=O)[C@@H]1OC(C)=O [NR TA]", "test.target": "Hela cells", "activity at 100 µM [%]": 199}

Proceed to the following item.
Item NC(=O)c1ccc[n+]([C@@H]2O[C@H](CO)[C@@H](O)[C@H]2O)c1 [NR, Nicotinamide riboside] with Hela cells - activity at 100 µM? 141
